tested on: OACM5-1 (Esophageal Adenocarcinoma); test: combination Emax (second highest fraction inhibited in the dose matrix, 72 h); higher = more inhibition; extreme values may be limits of the assay
READOUT_KIND: combination Emax

[[record]]
molecule = "CC1(C)CCC(CN2CCN(c3ccc(C(=O)NS(=O)(=O)c4ccc(NCC5CCOCC5)c([N+](=O)[O-])c4)c(Oc4cnc5[nH]ccc5c4)c3)CC2)=C(c2ccc(Cl)cc2)C1 [Venetoclax] + COc1cc(Nc2ncc3c(n2)-c2ccc(Cl)cc2C(c2c(F)cccc2OC)=NC3)ccc1C(=O)O [Alisertib] (first compound max 1 µM, 7x7, partner max 10 µM)"
readout_kind = "combination Emax"
recorded_result = 0.663

[[record]]
molecule = "Cc1cc2ncnn2cc1Nc1ncc2c(n1)n(C1CCOCC1)c(=O)n2C [AZD7648] + C=CCn1c(=O)c2cnc(Nc3ccc(N4CCN(C)CC4)cc3)nc2n1-c1cccc(C(C)(C)O)n1 [AZD1775] (first compound max 10 µM, partner max 1 µM)"
readout_kind = "combination Emax"
recorded_result = 0.473

[[record]]
molecule = "COc1nnc2ccc(N3CCC(c4ccc(OCCN5CCN(C)C(=O)[C@H]5C)cc4)CC3)nn12 [AZD5153] + C=CCn1c(=O)c2cnc(Nc3ccc(N4CCN(C)CC4)cc3)nc2n1-c1cccc(C(C)(C)O)n1 [AZD1775] (first compound max 1 µM, partner max 1 µM)"
readout_kind = "combination Emax"
recorded_result = 0.869

[[record]]
molecule = "CC(=O)c1c(C)c2cnc(Nc3ccc(N4CCNCC4)cn3)nc2n(C2CCCC2)c1=O [Palbociclib] + Cn1cnc2c(F)c(Nc3ccc(Br)cc3Cl)c(C(=O)NOCCO)cc21 [Selumetinib] (first compound max 10 µM, 7x7, partner max 10 µM)"
readout_kind = "combination Emax"
recorded_result = 0.477


###

system: MOLT-4 (T-Lymphoblastic Leukemia); assay: Bliss excess, mean over the matrix (fraction); higher = more synergy
READOUT_KIND: Bliss excess

[[record]]
compound = "N#Cc1cnc(Nc2cc(NC[C@H]3CNCCO3)c(C(F)(F)F)cn2)cn1 [SRA737] + C=CCn1c(=O)c2cnc(Nc3ccc(N4CCN(C)CC4)cc3)nc2n1-c1cccc(C(C)(C)O)n1 [AZD1775] (first compound max 10 µM, partner max 1 µM)"
recorded_result = 0.12

[[record]]
compound = "Cc1nc(Nc2ncc(C(=O)Nc3c(C)cccc3Cl)s2)cc(N2CCN(CCO)CC2)n1 [Dasatinib] + CC(=O)Nc1cccc(-n2c(=O)n(C3CC3)c(=O)c3c(Nc4ccc(I)cc4F)n(C)c(=O)c(C)c32)c1 [Trametinib] (first compound max 2 µM, 7x7, partner max 1 µM)"
recorded_result = 0.0717

[[record]]
compound = "CN(CCO)CC[C@H](CSc1ccccc1)Nc1ccc(S(=O)(=O)NC(=O)c2ccc(N3CCC([C@@H](O)c4ccccc4-c4ccc(Cl)cc4)CC3)cc2)cc1S(=O)(=O)C(F)(F)F [AZD4320] + Cc1cc2ncnn2cc1Nc1ncc2c(n1)n(C1CCOCC1)c(=O)n2C [AZD7648] (first compound max 1 µM, 7x7, partner max 10 µM)"
recorded_result = 0.0422


###

test system: NCI-H1092 (Small Cell Lung Carcinoma); test: Bliss excess, mean over the matrix (fraction); higher = more synergy
READOUT_KIND: Bliss excess

[[record]]
compound = "COc1nnc2ccc(N3CCC(c4ccc(OCCN5CCN(C)C(=O)[C@H]5C)cc4)CC3)nn12 [AZD5153] + C[C@@H]1COCCN1C2=NC(=NC(=C2)C3(CC3)[S@](=N)(=O)C)C4=C5C=CNC5=NC=C4 [AZD6738] (first compound max 1 µM, 7x7, partner max 10 µM)"
recorded_result = 0.0493

[[record]]
compound = "Cn1cnc2c(F)c(Nc3ccc(Br)cc3Cl)c(C(=O)NOCCO)cc21 [Selumetinib] + CCN(CCO)CCCOc1ccc2c(Nc3cc(CC(=O)Nc4cccc(F)c4)[nH]n3)ncnc2c1 [AZD2811] (first compound max 10 µM, 7x7, partner max 1 µM)"
recorded_result = -0.0083

[[record]]
compound = "CN(C)CCCOc1ccc(-c2ccc3ncc4c(c3c2)n(C2CCOCC2)c(=O)n4C)cn1 [AZD0156] + C[C@@H]1COCCN1C2=NC(=NC(=C2)C3(CC3)[S@](=N)(=O)C)C4=C5C=CNC5=NC=C4 [AZD6738] (first compound max 1 µM, 7x7, partner max 10 µM)"
recorded_result = -0.0427

[[record]]
compound = "CCc1c2c(nc3ccc(O)cc13)-c1cc3c(c(=O)n1C2)COC(=O)[C@]3(O)CC [SN-38] + CN(C)CCCOc1ccc(-c2ccc3ncc4c(c3c2)n(C2CCOCC2)c(=O)n4C)cn1 [AZD0156] (first compound max 0.3 µM, 7x7, partner max 1 µM)"
recorded_result = -0.0472


###

test system: HCC1937 (Breast Carcinoma); experiment: combination Emax (second highest fraction inhibited in the dose matrix, 72 h); higher = more inhibition; extreme values may be limits of the assay
Each entry below carries its recorded combination Emax.
READOUT_KIND: combination Emax

[[record]]
compound = "CN(CCO)CC[C@H](CSc1ccccc1)Nc1ccc(S(=O)(=O)NC(=O)c2ccc(N3CCC([C@@H](O)c4ccccc4-c4ccc(Cl)cc4)CC3)cc2)cc1S(=O)(=O)C(F)(F)F [AZD4320] + Cn1cnc2c(F)c(Nc3ccc(Br)cc3Cl)c(C(=O)NOCCO)cc21 [Selumetinib] (first compound max 1 µM, 7x7, partner max 3 µM)"
recorded_result = 0.601

[[record]]
compound = "CC(=O)c1c(C)c2cnc(Nc3ccc(N4CCNCC4)cn3)nc2n(C2CCCC2)c1=O [Palbociclib] + Cn1cnc2c(F)c(Nc3ccc(Br)cc3Cl)c(C(=O)NOCCO)cc21 [Selumetinib] (first compound max 10 µM, 7x7, partner max 10 µM)"
recorded_result = 0.214

[[record]]
compound = "CCN(CCO)CCCOc1ccc2c(Nc3cc(CC(=O)Nc4cccc(F)c4)[nH]n3)ncnc2c1 [AZD2811] + C=CCn1c(=O)c2cnc(Nc3ccc(N4CCN(C)CC4)cc3)nc2n1-c1cccc(C(C)(C)O)n1 [AZD1775] (first compound max 1 µM, partner max 1 µM)"
recorded_result = 0.471

[[record]]
compound = "CN(CCO)CC[C@H](CSc1ccccc1)Nc1ccc(S(=O)(=O)NC(=O)c2ccc(N3CCC([C@@H](O)c4ccccc4-c4ccc(Cl)cc4)CC3)cc2)cc1S(=O)(=O)C(F)(F)F [AZD4320] + C[C@@H](Nc1cc(F)cc(F)c1)c1cc(C(=O)N(C)C)cc2c(=O)cc(N3CCOCC3)oc12 [AZD8186] (first compound max 1 µM, 7x7, partner max 3 µM)"
recorded_result = 0.63

[[record]]
compound = "NC1(C(=O)N[C@@H](CCO)c2ccc(Cl)cc2)CCN(c2ncnc3[nH]ccc23)CC1 [Capivasertib] + CC(=O)c1c(C)c2cnc(Nc3ccc(N4CCNCC4)cn3)nc2n(C2CCCC2)c1=O [Palbociclib] (first compound max 10 µM, 7x7, partner max 10 µM)"
recorded_result = 0.477

[[record]]
compound = "CN(C)CCCOc1ccc(-c2ccc3ncc4c(c3c2)n(C2CCOCC2)c(=O)n4C)cn1 [AZD0156] + C=CCn1c(=O)c2cnc(Nc3ccc(N4CCN(C)CC4)cc3)nc2n1-c1cccc(C(C)(C)O)n1 [AZD1775] (first compound max 1 µM, partner max 1 µM)"
recorded_result = 0.475

[[record]]
compound = "COc1cccc(OCCCN)c1-c1cc(Nc2cnc(C#N)cn2)n[nH]1 [Prexasertib] + C=CCn1c(=O)c2cnc(Nc3ccc(N4CCN(C)CC4)cc3)nc2n1-c1cccc(C(C)(C)O)n1 [AZD1775] (first compound max 1 µM, partner max 1 µM)"
recorded_result = 0.584


###

test system: Ca-Ski (Cervical Carcinoma); test: combination Emax (second highest fraction inhibited in the dose matrix, 72 h); higher = more inhibition; extreme values may be limits of the assay
# if value of combination Emax reaches 0.5, tag class 1; if it stays below, tag class 0

[[record]]
molecule = "N#Cc1cnc(Nc2cc(NC[C@H]3CNCCO3)c(C(F)(F)F)cn2)cn1 [SRA737] + CCc1c2c(nc3ccc(O)cc13)-c1cc3c(c(=O)n1C2)COC(=O)[C@]3(O)CC [SN-38] (first compound max 10 µM, 7x7, partner max 0.3 µM)"
assigned_class = "class 1"

[[record]]
molecule = "COc1cc2c(cc1OCCCCCOc1cc3c(cc1OC)C(=O)N1C=C(C)C[C@H]1C=N3)N=C[C@@H]1CC(C)=CN1C2=O [SG3199] + O=C(c1cc(Cc2n[nH]c(=O)c3ccccc23)ccc1F)N1CCN(C(=O)C2CC2)CC1 [Olaparib] (first compound max 0.001 µM, 7x7, partner max 10 µM)"
assigned_class = "class 0"

[[record]]
molecule = "Cc1c2c(nn1C)CSCc1cc(n(C)n1)CSc1cc(c3ccccc3c1)OCCCc1c(C(=O)O)n(C)c3c-2c(Cl)ccc13 [AZD5991] + Cc1cc2ncnn2cc1Nc1ncc2c(n1)n(C1CCOCC1)c(=O)n2C [AZD7648] (first compound max 1 µM, 7x7, partner max 10 µM)"
assigned_class = "class 0"

[[record]]
molecule = "CC(=O)c1c(C)c2cnc(Nc3ccc(N4CCNCC4)cn3)nc2n(C2CCCC2)c1=O [Palbociclib] + Cc1c2c(nn1C)CSCc1cc(n(C)n1)CSc1cc(c3ccccc3c1)OCCCc1c(C(=O)O)n(C)c3c-2c(Cl)ccc13 [AZD5991] (first compound max 10 µM, 7x7, partner max 1 µM)"
assigned_class = "class 0"

[[record]]
molecule = "C[C@@H]1COCCN1c1cc(C2([S@](C)(=N)=O)CC2)nc(-c2ccnc3[nH]ccc23)n1 [AZD6738] + O=C(c1cc(Cc2n[nH]c(=O)c3ccccc23)ccc1F)N1CCN(C(=O)C2CC2)CC1 [Olaparib] (first compound max 10 µM, 7x7, partner max 10 µM)"
assigned_class = "class 1"

[[record]]
molecule = "C=CCn1c(=O)c2cnc(Nc3ccc(N4CCN(C)CC4)cc3)nc2n1-c1cccc(C(C)(C)O)n1 [AZD1775] + C1CN(CCC1(C(=O)N[C@@H](CCO)C2=CC=C(C=C2)Cl)N)C3=NC=NC4=C3C=CN4 [Capivasertib] (first compound max 3 µM, partner max 3 µM)"
assigned_class = "class 1"

[[record]]
molecule = "NC1(C(=O)N[C@@H](CCO)c2ccc(Cl)cc2)CCN(c2ncnc3[nH]ccc23)CC1 [Capivasertib] + Cn1cnc2c(F)c(Nc3ccc(Br)cc3Cl)c(C(=O)NOCCO)cc21 [Selumetinib] (first compound max 10 µM, 7x7, partner max 10 µM)"
assigned_class = "class 1"

[[record]]
molecule = "O=C(c1cc(Cc2n[nH]c(=O)c3ccccc23)ccc1F)N1CCN(C(=O)C2CC2)CC1 [Olaparib] + COc1nnc2ccc(N3CCC(c4ccc(OCCN5CCN(C)C(=O)[C@H]5C)cc4)CC3)nn12 [AZD5153] (first compound max 10 µM, 7x7, partner max 1 µM)"
assigned_class = "class 0"

[[record]]
molecule = "CC1(C)CCC(CN2CCN(c3ccc(C(=O)NS(=O)(=O)c4ccc(NCC5CCOCC5)c([N+](=O)[O-])c4)c(Oc4cnc5[nH]ccc5c4)c3)CC2)=C(c2ccc(Cl)cc2)C1 [Venetoclax] + Cn1cnc2c(F)c(Nc3ccc(Br)cc3Cl)c(C(=O)NOCCO)cc21 [Selumetinib] (first compound max 1 µM, 7x7, partner max 3 µM)"
assigned_class = "class 0"

[[record]]
molecule = "COc1nnc2ccc(N3CCC(c4ccc(OCCN5CCN(C)C(=O)[C@H]5C)cc4)CC3)nn12 [AZD5153] + CC1(C)CCC(CN2CCN(c3ccc(C(=O)NS(=O)(=O)c4ccc(NCC5CCOCC5)c([N+](=O)[O-])c4)c(Oc4cnc5[nH]ccc5c4)c3)CC2)=C(c2ccc(Cl)cc2)C1 [Venetoclax] (first compound max 1 µM, 7x7, partner max 1 µM)"
assigned_class = "class 1"

[[record]]
molecule = "C[C@@H]1COCCN1c1cc(C2([S@](C)(=N)=O)CC2)nc(-c2ccnc3[nH]ccc23)n1 [AZD6738] + Nc1ccn([C@@H]2O[C@H](CO)[C@@H](O)C2(F)F)c(=O)n1 [Gemcitabine] (first compound max 10 µM, 7x7, partner max 0.3 µM)"
assigned_class = "class 1"

[[record]]
molecule = "CC1(C)CCC(CN2CCN(c3ccc(C(=O)NS(=O)(=O)c4ccc(NCC5CCOCC5)c([N+](=O)[O-])c4)c(Oc4cnc5[nH]ccc5c4)c3)CC2)=C(c2ccc(Cl)cc2)C1 [Venetoclax] + C[C@@H]1COCCN1C2=NC(=NC(=C2)C3(CC3)[S@](=N)(=O)C)C4=C5C=CNC5=NC=C4 [AZD6738] (first compound max 1 µM, 7x7, partner max 10 µM)"
assigned_class = "class 1"

